# Lookup of reported phosphorylation enrichment keyed by entry
Tested on: c-Abl (mouse)
Assay Overview: phosphorylation enrichment, bacterial display (enrichment ratio); higher = better substrate or ligand; peptides without Tyr show the background;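 note: 11-residue human phosphosite peptides and single-mutation variants displayed on the E. coli surface, counted by deep sequencing, each peptide's frequency after selection divided by its frequency in the unselected input library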;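 note: frequency after pTyr selection over input frequency; kinase dosed for 20-30% of maximal phosphorylation in three min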

{"Chain": "VRSVDYVLFRS [FAM189B_Y361]", "phosphorylation enrichment": 0.516}
{"Chain": "LGKLTYPVGFW [NTHL1_Y177_I176T]", "phosphorylation enrichment": 1.32}
{"Chain": "LKKLEYLNLAL [LRRC6_Y70]", "phosphorylation enrichment": 0.574}
{"Chain": "GDKENYGLPQP [BUB1_Y538_N534D]", "phosphorylation enrichment": 0.632}
{"Chain": "ILTLKYPIKHG [ACTA1_Y71_E74K]", "phosphorylation enrichment": 0.367}
{"Chain": "GISDEYHVIRH [GCDH_Y398]", "phosphorylation enrichment": 0.569}
{"Chain": "KVPELYEIHKE [BCR_Y554]", "phosphorylation enrichment": 0.714}
{"Chain": "LYVDVYGPSVP [NUBPL_Y109_D105Y]", "phosphorylation enrichment": 0.902}
{"Chain": "GRVLGYGTFGK [FLT4_Y853_A855T]", "phosphorylation enrichment": 0.533}
{"Chain": "DRIVNYSRASI [ATP7A_Y1459]", "phosphorylation enrichment": 0.585}
{"Chain": "PRPAGYPSMVS [CACNA1C_Y1832_T1835M]", "phosphorylation enrichment": 0.435}
{"Chain": "YQSKHYACIRQ [TIMP3_Y182]", "phosphorylation enrichment": 0.648}
{"Chain": "RNAAEYLLSSG [ABL1_Y139]", "phosphorylation enrichment": 0.353}
{"Chain": "WKEREYEVVRD [CPS1_Y634_I632R]", "phosphorylation enrichment": 0.594}

###

# Lookup of reported phosphorylation enrichment keyed by entry
Tested on: c-Src
Assay Overview: phosphorylation enrichment, bacterial display (enrichment ratio); higher = better substrate or ligand; peptides without Tyr show the background

{"Chain": "FHRQLYHKCTH [F12_Y58_YF]", "Target System": "c-Src", "phosphorylation enrichment": 0.375}
{"Chain": "NGSFRYVIISQ [LRP1B_Y1988]", "Target System": "c-Src", "phosphorylation enrichment": 0.422}
{"Chain": "HDKEFYSVHNK [MET_Y1235_Y1230H_YF]", "Target System": "c-Src", "phosphorylation enrichment": 0.429}
{"Chain": "RDSQLYAVDFE [MRPS34_Y34_YF]", "Target System": "c-Src", "phosphorylation enrichment": 1.35}
{"Chain": "RGKDSYETSQL [SPP1_Y225]", "Target System": "c-Src", "phosphorylation enrichment": 0.449}
{"Chain": "CKSVHYDLVFL [COL22A1_Y37]", "Target System": "c-Src", "phosphorylation enrichment": 0.528}
{"Chain": "LIHLHYIRRDY [BBS4_Y43_K46R]", "Target System": "c-Src", "phosphorylation enrichment": 0.388}
{"Chain": "RESSGYLRLAF [MEP1A_Y481]", "Target System": "c-Src", "phosphorylation enrichment": 1.11}
{"Chain": "LITTPYIGFLG [KCNQ1_Y267_L266P]", "Target System": "c-Src", "phosphorylation enrichment": 1.35}
{"Chain": "IEDNKYTAREG [HCK_Y411_E410K]", "Target System": "c-Src", "phosphorylation enrichment": 0.506}
{"Chain": "RRVLVYVGRGA [QDPR_Y16_G17V]", "Target System": "c-Src", "phosphorylation enrichment": 0.788}
{"Chain": "PYYASYPPSPD [GDAP2_Y491_T489A]", "Target System": "c-Src", "phosphorylation enrichment": 7.56}
{"Chain": "YQSKHYACIRQ [TIMP3_Y182]", "Target System": "c-Src", "phosphorylation enrichment": 0.406}
{"Chain": "SVVVPYETPEV [TP53_Y220_P222T]", "Target System": "c-Src", "phosphorylation enrichment": 0.505}
{"Chain": "DFKIIYIAPMR [SNRNP200_Y540]", "Target System": "c-Src", "phosphorylation enrichment": 0.572}
{"Chain": "RAIDMYLMGCF [GABRB2_Y308_K303R]", "Target System": "c-Src", "phosphorylation enrichment": 1.29}
{"Chain": "SRASFYRKGGC [ALK_Y1283_Y1278S_YF]", "Target System": "c-Src", "phosphorylation enrichment": 0.575}
{"Chain": "YQCKHYACIRQ [TIMP3_Y182_S179C]", "Target System": "c-Src", "phosphorylation enrichment": 0.362}
{"Chain": "LSALDYKIFFF [WDPCP_Y210_YF]", "Target System": "c-Src", "phosphorylation enrichment": 0.717}
{"Chain": "IRKDLYANNVL [ACTA2_Y296]", "Target System": "c-Src", "phosphorylation enrichment": 0.429}
{"Chain": "MLEVSYVDRNS [F10_Y384_P383S]", "Target System": "c-Src", "phosphorylation enrichment": 0.466}
{"Chain": "YDEYRYRSVIK [CFTR_Y517]", "Target System": "c-Src", "phosphorylation enrichment": 2.15}
{"Chain": "AMIADYMFWLG [SPATA16_Y290]", "Target System": "c-Src", "phosphorylation enrichment": 1.3}
{"Chain": "PDKRIYQFTAA [SKAP2_Y197]", "Target System": "c-Src", "phosphorylation enrichment": 0.729}
{"Chain": "PRNLIYFGEHP [TRPV6_Y201_C197R]", "Target System": "c-Src", "phosphorylation enrichment": 1.08}
{"Chain": "CPEARYNRSPI [PTAR1_Y42]", "Target System": "c-Src", "phosphorylation enrichment": 0.399}
{"Chain": "KDHPDYKFQPR [SOX10_Y171_YF]", "Target System": "c-Src", "phosphorylation enrichment": 0.453}
{"Chain": "GSPAPYRRRKR [MBD1_Y403_P401A]", "Target System": "c-Src", "phosphorylation enrichment": 0.618}
{"Chain": "SNNYIYKTLGV [FAM83B_Y639]", "Target System": "c-Src", "phosphorylation enrichment": 0.476}

Data provenance: the supplement of paper PMC10065799
